The reported numbers originate from patent US8586755B2.

target: KCNQ2/3 channels (Homo sapiens, UniProt O43525+O43526); construct: expressed in transfected cells; experiment: Fluorescence assay using a voltage sensitive dye (fluorimetry); type: cell-based; conditions: CHO-K1 cells expressing KCNQ2/3 channels; retigabine 50 μM = 100%; read-out: Fluorimetry % efficacy (retigabine 50 μM = 100%)
So I've got a bunch of molecules here, and I need their Emax values.
Numeric answer only, unit % assumed.

Could you share what Emax was measured for COc1cccc(CNC(=O)c2cccnc2SCCCc2ccc(F)cc2)c1 [compound 77] , tested on KCNQ2/3 channels (Homo sapiens, UniProt O43525+O43526)?
118

Form entry - test system: KCNQ2/3 channels (Homo sapiens, UniProt O43525+O43526); read-out: Emax; molecule: O=C(NCC12CCC(CC1)C2)c1cccnc1SCCC(F)(F)c1ccc(F)cc1 [compound 205]
294

For the record CC(CCc1cccc(C(F)(F)F)c1)Sc1ncccc1C(=O)NCc1cccs1 (centres unmarked) [compound 107] , what value of Emax is listed for KCNQ2/3 channels (Homo sapiens, UniProt O43525+O43526)?
119

Request body: readout Emax, system KCNQ2/3 channels (Homo sapiens, UniProt O43525+O43526), query O=C(NCCCc1cccnc1)c1cccnc1SCCCc1ccc(F)cc1 [compound 94] . Return the value.
181

Recorded Emax for O=C(NCC1CCCO1)c1cccnc1SCCCc1ccc(F)cc1 (centres unmarked) [compound 181] with KCNQ2/3 channels (Homo sapiens, UniProt O43525+O43526), please?
254

====

So I've got a bunch of compounds here, and I need their pEC50 values.
molecular target: KCNQ2/3 channels (Homo sapiens, UniProt O43525+O43526); test: Fluorescence assay using a voltage sensitive dye (fluorimetry); settings: CHO-K1 cells expressing KCNQ2/3 channels, agonistic activity
pEC50 field: float, defined as -log10 of concentration (mol/L).

Recorded pEC50 for O=C(NCC1CCCCO1)c1cccnc1SCCC(F)(F)c1ccc(F)cc1 (stereo not shown) , please?
7.33

Look up pEC50 for this compound: O=C(NCc1cccs1)c1cccnc1CCCCc1cccc(C(F)(F)F)c1
6.44

Given the compound CCCCCCNC(=O)c1cccnc1SCCC(F)(F)c1ccc(F)cc1 , what is its reported pEC50?
6.63

# pEC50 lookup, item O=C(NCc1cccc(-c2cccnc2)c1)c1cccnc1SCCCc1ccc(F)cc1
5.89

I am curious: what pEC50 value has been reported for CC(CCc1ccc(F)c(F)c1)Sc1ncccc1C(=O)NCc1ccc(F)cc1 (stereo not shown) ?
7.70

Fill blank: measured pEC50 of the compound O=C(NCc1ccc2c(c1)CCO2)c1cccnc1SCCCc1ccc(F)cc1 is ____.
7.07

Bench note: what pEC50 did O=C(NCc1ccccn1)c1cccnc1SCCCc1ccc(F)cc1 show?
5.82

Reported pEC50, compound O=C(NCC1CC2CCC1C2)c1cccnc1SCCCc1ccc(F)cc1 (stereo not shown) : ____
6.70

Which pEC50 is reported for this compound? CC(C)CCNC(=O)c1cccnc1SCCC(F)(F)c1ccc(F)cc1
7.72

// lookup pEC50 for O=C(NCc1ccc(F)c(F)c1)c1cccnc1SCCCc1ccc(F)cc1
7.14

Value lookup for pEC50; key = O=C(NCc1cncs1)c1cccnc1SCCCc1ccc(F)cc1
5.83

What measured pEC50 goes with Cc1ccc(CNC(=O)c2cccnc2SCCC(F)(F)c2ccc(F)cc2)o1 ?
7.43

Query (compound): CC(C)CCNC(=O)c1cccnc1SC(C)CCc1ccc(F)c(F)c1 (stereo not shown) ; field requested: pEC50
7.40

May I ask what pEC50 has been recorded for O=C(NCc1cccc(O)c1)c1cccnc1SCCCc1ccc(F)cc1 ?
5.45

May I ask what pEC50 has been recorded for O=C(NCc1ccc(F)cc1)c1cccnc1SCCCc1cccc(C(F)(F)F)c1 ?
7.47

Query (compound): CC(CCc1ccccc1)Sc1ncccc1C(=O)NCC1CC2CCC1C2 (stereo not shown) ; field requested: pEC50
6.95

Returns the measured pEC50 for the input compound. Input: O=C(NCC1CC2CCC1C2)c1cccnc1SCCOc1ccccc1 (stereo not shown)
6.17

Record request: pEC50 value, item CC(CCc1ccc(F)cc1)Sc1ncccc1C(=O)NCC1C2CCC1CC2 (stereo not shown)
7.02

I have this compound here, CN1CCOc2ccc(CNC(=O)c3cccnc3SCCCc3ccc(F)cc3)cc21 , and I need its recorded pEC50.
6.78

====

target: KCNQ2/3 channels (Homo sapiens, UniProt O43525+O43526); assay: Fluorescence assay using a voltage sensitive dye (fluorimetry); settings: CHO-K1 cells expressing KCNQ2/3 channels, agonistic activity
Grouping rule (EC50): category 1: < 100 nM; category 2: ≥ 100 nM and < 400 nM; category 3: ≥ 400 nM

Field: class (EC50) — entry: CCCNC(=O)c1cccnc1SCCC(F)(F)c1ccc(F)cc1
category 2

Given O=C(NCCCc1ccncc1)c1cccnc1SCCCc1ccc(F)cc1 , name the class its EC50 places it in.
category 3

Assign a category based on measured EC50 for O=C(NCc1cccs1)c1cccnc1SCCCc1cccc(C(F)(F)F)c1 and give only the class name.
category 2

Which EC50 band matches CC(CCc1cccc(C(F)(F)F)c1)Sc1ncccc1C(=O)NCc1cccs1 (stereo not shown) ?
category 1

Which bin, given its EC50, does O=C(NCCc1ccccc1)c1cccnc1SCCCc1ccc(F)cc1 occupy?
category 2

Kindly identify the class of CC(C)CCNC(=O)c1cccnc1SC(C)CCc1cccc(C(F)(F)F)c1 (stereo not shown) .
category 1

Into which category would you place O=C(NCc1cccc(C(F)(F)F)c1)c1cccnc1SCCCc1ccc(F)cc1 ?
category 2

Class label required: CC(CCc1ccc(F)cc1)Sc1ncccc1C(=O)NCC1CC2CCC1C2 (stereo not shown)
category 1

Hey, which category is COc1ccccc1CCCNC(=O)c1cccnc1SCCCc1ccc(F)cc1 in, do you know?
category 3

Band for CC(C)CCNC(=O)c1cccnc1SCCCc1cccc(C(F)(F)F)c1 ?
category 1

Which EC50 band matches O=C(NCc1cccc(N2CCOCC2)c1)c1cccnc1SCCCc1ccc(F)cc1 ?
category 3

Using the reported EC50, which band applies to CC(CCc1ccccc1)Sc1ncccc1C(=O)NCc1cccs1 (stereo not shown) ?
category 3

# classify by EC50 band: O=C(NCc1ccc(F)cc1)c1cccnc1SCCCc1ccc(F)cc1
category 1

Lab note: sort Cc1ccc(CCCSc2ncccc2C(=O)NCc2cccs2)cc1 into the matching EC50 band.
category 2

Lab note: sort O=C(NCc1ccco1)c1cccnc1SCCC(F)(F)c1ccc(F)cc1 into the matching EC50 band.
category 1

For this compound, which bin applies? O=C(NCC1CC2CCC1C2)c1cccnc1SCCC(O)c1ccc(F)cc1 (stereo not shown)
category 3

Consider O=C(NCc1cccs1)c1cccnc1CCCS(=O)(=O)c1cccc(C(F)(F)F)c1 . To which EC50 class does it belong?
category 3

Kindly identify the class of O=C(NCc1cccs1)c1cccnc1CCCSc1ccccc1 .
category 3

Would you mind sorting C[C@@H](CCc1ccccc1)Sc1ncccc1C(=O)NCCC(C)(C)C into the appropriate category?
category 2

State the band of Cc1ccnc(SCCCc2ccc(F)cc2)c1C(=O)NCCC(C)(C)C
category 3

For the record O=C(NCc1ccc2c(c1)OCCO2)c1cccnc1SCCCc1ccc(F)cc1 , report the class its EC50 corresponds to.
category 2

Kindly identify the class of CC(C)CCNC(=O)c1cccnc1SCCCc1ccc(F)cc1 .
category 2

Which category fits this record: O=C(NCc1cccc(F)c1)c1cccnc1SCCCc1ccc(F)cc1
category 1

Please report the category associated with COc1cccc(CNC(=O)c2cccnc2SCCCc2ccc(F)cc2)c1 , nothing else.
category 2

Which bin should I file O=C(NCc1ccc(C(F)(F)F)cc1)c1cccnc1SCCCc1ccc(F)cc1 under?
category 1

Bin? O=C(NCc1cccs1)c1cccnc1SCCCc1ccccc1
category 2

Would you mind sorting Cc1ccc(CNC(=O)c2cccnc2SCCCc2ccc(F)cc2)o1 into the appropriate category?
category 2

Hello team, could you let me know which band the following compound falls into: CC(C)CCCSc1ncccc1C(=O)NCC1CC2CCC1C2 (stereo not shown)
category 3

Which of the defined bands does the recorded EC50 of O=C(CCSc1ncccc1C(=O)NCC1CC2CCC1C2)c1ccc(F)cc1 (stereo not shown) sit within?
category 3

Dear colleague, I would appreciate it if you could identify the bin for O=C(NCc1ncco1)c1cccnc1SCCCc1ccc(F)cc1 and reply at your convenience.
category 3

Where would CC(CCc1cccc(F)c1)Sc1ncccc1C(=O)NCc1ccc(F)cc1 (stereo not shown) land among the classes by reported EC50?
category 1

Which category does the recorded EC50 put O=C(NCc1cccs1)c1cccnc1SCCCc1ccc2ccccc2c1 in?
category 3

Exercise: read the entry O=C(NCC1CC2CCC1C2)c1cccnc1SCCC(F)(F)c1ccc(F)cc1 (stereo not shown) and state which class it falls under.
category 1

Into which bin does this compound go? O=C(NCC1CCCOC1)c1cccnc1SCCC(F)(F)c1ccc(F)cc1 (stereo not shown)
category 2

State the class of the compound shown: O=C(NCC1CC2CCC1C2)c1cccnc1SCCCc1cccc(O)c1 (stereo not shown)
category 2

Which of the defined bands does the recorded EC50 of COCCNC(=O)c1cccnc1SCCC(F)(F)c1ccc(F)cc1 sit within?
category 3

Textbook exercise: identify the category of the compound given here, O=C(NCc1ccc(F)cc1)c1cccnc1SCCC(F)(F)c1ccc(F)cc1 , according to its measured value.
category 1
